system: human epidermoid carcinoma cell line KB-31; test: Growth inhibition of KB-31 cells, 72 h, methylene blue staining; format: cell-based; settings: Homo sapiens, KB 3-1, 72 h, KB-31, 72 h exposure
readout.label: IC50 (nM)
Your answer should be a plain number; it is taken to be in nM.

Data request: Can you share its IC50? I mean this compound: C/C(=C\c1csc(C)n1)[C@@H]1C[C@@H]2OC(=O)NC2CCCC(C)[C@H](O)C(C)C(=O)C(C)(C)C(O)CC(=O)O1 (stereo partly shown) [Compound 4h]
Data returned: 615

###

Parameter: log10(IC50). Scope: all listed entries.
test system: human epidermoid carcinoma cell line KB-8511; assay: Growth inhibition of KB-8511 cells (P-gp170-overexpressing multidrug-resistant subline), 72 h, methylene blue staining; type: cell-based; details: KB-8511 (P-gp170-overexpressing), 72 h exposure
Plainly stated, the numbers are log10 of IC50 given in nM.

Data request: Can you share its log10(IC50)? I mean this compound: CC(=Cc1csc(C)n1)C1CC2OC(c3ccncc3)=NC2CCCC(C)C(O)C(C)C(=O)C(C)(C)C(O)CC(=O)O1 (stereo not drawn)
Data returned: 1.92

###

system: human epidermoid carcinoma cell line KB-8511; test: Growth inhibition of KB-8511 cells (P-gp170-overexpressing multidrug-resistant subline), 72 h, methylene blue staining; assay type: cell-based; conditions: KB-8511, 72 h exposure; class symbols
pIC50: −log10 of the molar value.
Parameter: pIC50. Scope: all listed entries.

Data request: Field: pIC50 (human epidermoid carcinoma cell line KB-8511). Entry: CC(=Cc1csc(C)n1)C1CC2OC(C)=NC2CCCC(C)C(O)C(C)C(=O)C(C)(C)C(O)CC(=O)O1 (stereo not shown) [Compound 4a]
Data returned: < 6.00

Data request: Field: pIC50 (human epidermoid carcinoma cell line KB-8511). Entry: COC1=NC2CCCC(C)C(O)C(C)C(=O)C(C)(C)C(O)CC(=O)OC(C(C)=Cc3csc(C)n3)CC2O1 (stereo not shown) [Compound 4e]
Data returned: < 6.00

Data request: Field: pIC50 (human epidermoid carcinoma cell line KB-8511). Entry: CC(=Cc1csc(C)n1)C1CC2OC(C(C)(C)C)=NC2CCCC(C)C(O)C(C)C(=O)C(C)(C)C(O)CC(=O)O1 (stereo not shown) [Compound 4d]
Data returned: 6.60 to 7.00

Data request: Field: pIC50 (human epidermoid carcinoma cell line KB-8511). Entry: CC(=Cc1csc(C)n1)C1CC2OC(c3ccsc3)=NC2CCCC(C)C(O)C(C)C(=O)C(C)(C)C(O)CC(=O)O1 (stereo not shown) [drawing 72]
Data returned: 6.60 to 7.00

Data request: Field: pIC50 (human epidermoid carcinoma cell line KB-8511). Entry: CCC1=NC2CCCC(C)C(O)C(C)C(=O)C(C)(C)C(O)CC(=O)OC(C(C)=Cc3csc(C)n3)CC2O1 (stereo not shown) [Compound 4b]
Data returned: < 6.00

Data request: Field: pIC50 (human epidermoid carcinoma cell line KB-8511). Entry: CC(=Cc1csc(C)n1)C1CC2OC(c3ccncc3)=NC2CCCC(C)C(O)C(C)C(=O)C(C)(C)C(O)CC(=O)O1 (stereo not shown) [Compound 6a]
Data returned: > 7.00

Data request: Field: pIC50 (human epidermoid carcinoma cell line KB-8511). Entry: CCCCC1=NC2CCCC(C)C(O)C(C)C(=O)C(C)(C)C(O)CC(=O)OC(C(C)=Cc3csc(C)n3)CC2O1 (stereo not shown) [Compound 4c]
Data returned: 6.00 to 6.12

###

Test system: human epidermoid carcinoma cell line KB-31
Assay: Growth inhibition of KB-31 cells, 72 h, methylene blue staining
Assay type: cell-based
Details: KB-31, 72 h exposure
Protocol: Determination of IC50 Values Against Human Epidermoid Carcinoma Cell Lines KB-31 Cells are exposed to compounds for 72 h. Cell numbers are estimated by quantification of protein content of fixed cells by methylene blue staining.
readout.label: IC50 (nM)
Your answer should be a plain number; it is taken to be in nM.

Data request: Field: IC50 (human epidermoid carcinoma cell line KB-31). Entry: COC1=NC2CCCC(C)C(O)C(C)C(=O)C(C)(C)C(O)CC(=O)OC(C(C)=Cc3csc(C)n3)CC2O1 (stereo not shown) [Compound 4e]
Data returned: 1270

Data request: Field: IC50 (human epidermoid carcinoma cell line KB-31). Entry: CC(=Cc1csc(C)n1)C1CC2OC(c3ccncc3)=NC2CCCC(C)C(O)C(C)C(=O)C(C)(C)C(O)CC(=O)O1 (stereo not shown) [Compound 6a]
Data returned: 30

###

test system: human epidermoid carcinoma cell line KB-8511; test: Growth inhibition of KB-8511 cells (P-gp170-overexpressing multidrug-resistant subline), 72 h, methylene blue staining; type: cell-based; settings: KB-8511 (P-gp170-overexpressing), 72 h exposure
Parameter: IC50. Scope: all listed entries.

CC(=Cc1csc(C)n1)C1CC2OC(C(C)(C)C)=NC2CCCC(C)C(O)C(C)C(=O)C(C)(C)C(O)CC(=O)O1 (centres unmarked)	0.055 µM
CCC1=NC2CCCC(C)C(O)C(C)C(=O)C(C)(C)C(O)CC(=O)OC(C(C)=Cc3csc(C)n3)CC2O1 (centres unmarked)	5.54 µM
CC(=Cc1csc(C)n1)C1CC2OC(c3ccsc3)=NC2CCCC(C)C(O)C(C)C(=O)C(C)(C)C(O)CC(=O)O1 (centres unmarked)	0.146 µM
COC1=NC2CCCC(C)C(O)C(C)C(=O)C(C)(C)C(O)CC(=O)OC(C(C)=Cc3csc(C)n3)CC2O1 (centres unmarked)	5.53 µM

Continue with the next compound.
Data request: Can you share its IC50? I mean this compound: CC(=Cc1csc(C)n1)C1CC2OC(C)=NC2CCCC(C)C(O)C(C)C(=O)C(C)(C)C(O)CC(=O)O1 (centres unmarked)
Data returned: > 1 µM

###

test system: human epidermoid carcinoma cell line KB-31; test: Growth inhibition of KB-31 cells, 72 h, methylene blue staining; type: cell-based; conditions: KB-31, 72 h exposure
readout.label: IC50 (nM)
Your answer should be a plain number; it is taken to be in nM.

Please review the following examples before continuing.
CC(=Cc1csc(C)n1)C1CC2OC(c3ccsc3)=NC2CCCC(C)C(O)C(C)C(=O)C(C)(C)C(O)CC(=O)O1 (centres unmarked)	42
CC(=Cc1csc(C)n1)C1CC2OC(C(C)(C)C)=NC2CCCC(C)C(O)C(C)C(=O)C(C)(C)C(O)CC(=O)O1 (centres unmarked)	12
C/C(=C\c1csc(C)n1)[C@@H]1C[C@@H]2OC(=O)NC2CCCC(C)[C@H](O)C(C)C(=O)C(C)(C)C(O)CC(=O)O1 (some centres unmarked)	640

Continue with the next compound.
Data request: Can you share its IC50? I mean this compound: CCC1=NC2CCCC(C)C(O)C(C)C(=O)C(C)(C)C(O)CC(=O)OC(C(C)=Cc3csc(C)n3)CC2O1 (centres unmarked)
Data returned: 1860
